IC50 values, listed per item
TESTED TARGET: HDAC6 human recombinant (Homo sapiens, UniProt Q9UBN7)
Construct: purchased Calbiochem 382180
Sequence (Q9UBN7 whole entry): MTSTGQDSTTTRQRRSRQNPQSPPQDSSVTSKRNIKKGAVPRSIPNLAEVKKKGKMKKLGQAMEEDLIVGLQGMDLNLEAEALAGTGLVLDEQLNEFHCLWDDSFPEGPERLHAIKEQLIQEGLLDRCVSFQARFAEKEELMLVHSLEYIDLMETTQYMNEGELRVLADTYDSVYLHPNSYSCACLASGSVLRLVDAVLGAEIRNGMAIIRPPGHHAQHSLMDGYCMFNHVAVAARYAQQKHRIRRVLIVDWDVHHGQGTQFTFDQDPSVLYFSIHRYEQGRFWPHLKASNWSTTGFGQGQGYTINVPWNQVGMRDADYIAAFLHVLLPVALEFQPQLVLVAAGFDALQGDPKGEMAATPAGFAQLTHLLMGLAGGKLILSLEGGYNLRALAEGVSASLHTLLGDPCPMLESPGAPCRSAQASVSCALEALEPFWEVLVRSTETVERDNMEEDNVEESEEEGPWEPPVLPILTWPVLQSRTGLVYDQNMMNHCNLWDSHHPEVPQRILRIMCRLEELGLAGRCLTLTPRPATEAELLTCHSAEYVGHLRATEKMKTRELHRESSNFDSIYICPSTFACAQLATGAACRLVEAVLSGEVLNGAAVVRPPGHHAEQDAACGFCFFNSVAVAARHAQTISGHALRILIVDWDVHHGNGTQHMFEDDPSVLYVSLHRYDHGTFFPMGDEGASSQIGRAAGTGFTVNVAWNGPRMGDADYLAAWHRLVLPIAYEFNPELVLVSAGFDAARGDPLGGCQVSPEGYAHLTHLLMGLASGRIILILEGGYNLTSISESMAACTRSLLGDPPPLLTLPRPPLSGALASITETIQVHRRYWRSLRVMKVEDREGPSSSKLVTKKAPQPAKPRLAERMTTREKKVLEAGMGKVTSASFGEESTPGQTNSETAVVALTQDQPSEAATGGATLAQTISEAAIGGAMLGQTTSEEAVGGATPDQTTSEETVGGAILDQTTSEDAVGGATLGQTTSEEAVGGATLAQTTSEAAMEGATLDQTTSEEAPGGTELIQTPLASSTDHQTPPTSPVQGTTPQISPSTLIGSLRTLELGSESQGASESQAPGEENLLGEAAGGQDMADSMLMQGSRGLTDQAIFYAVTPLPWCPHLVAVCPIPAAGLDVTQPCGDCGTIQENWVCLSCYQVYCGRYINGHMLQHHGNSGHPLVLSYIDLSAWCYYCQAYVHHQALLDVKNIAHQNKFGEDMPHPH
PROTOCOL TEXT: HDAC enzyme activity inhibition (in vitro), HDAC6 assay
Type: biochemical
EXPERIMENTAL PARAMETERS: samples at 0.1, 1, 10, 100 and 1000 nM; 37° C. 60 minutes; fluorescence Ex 390, Em 460; read-out: HDAC6 IC50
MEASURED METRIC: IC50 (nM)

>  <COMPOUND>
O=c1n(Cc2ccc(-c3nnc(C(F)F)o3)cn2)c2cc(F)ccc2n1C1CN(C2COC2)C1 [Compound 302]

>  <RECORDED MEASUREMENT>
38

$$$$
>  <COMPOUND>
CN1CCC(n2c(=O)n(Cc3ccc(-c4nnc(C(F)F)o4)cn3)c3ccc(-c4cccnc4)cc32)CC1 [Compound 136]

>  <RECORDED MEASUREMENT>
12

$$$$
>  <COMPOUND>
CC(=O)N1CCC(c2ccc3c(c2)n(C2CCN(C)CC2)c(=O)n3Cc2ccc(-c3nnc(C(F)F)o3)cn2)CC1 [Compound 197]

>  <RECORDED MEASUREMENT>
235

$$$$
>  <COMPOUND>
COCCN1Cc2ccccc2N(Cc2ccc(-c3nnc(C(F)F)o3)cn2)C1=O [Compound 31]

>  <RECORDED MEASUREMENT>
108

$$$$
>  <COMPOUND>
CN1CCC(n2c(=O)n(Cc3ccc(-c4nnc(C(F)F)o4)cc3F)c3cc(F)ccc32)CC1 [Compound 69]

>  <RECORDED MEASUREMENT>
28

$$$$
>  <COMPOUND>
CN1CCC(n2c(=O)n(Cc3ccc(-c4nnc(C(F)F)o4)cc3F)c3cc(Cl)c(Cl)cc32)CC1 [Compound 87]

>  <RECORDED MEASUREMENT>
63

$$$$
>  <COMPOUND>
CN1CCC(n2c(=O)n(Cc3ccc(-c4nnc(C(F)F)o4)cc3F)c3ccc(-c4cccnc4)cc32)CC1 [Compound 139]

>  <RECORDED MEASUREMENT>
31

$$$$

----------
TESTED TARGET: HDAC6 human recombinant (Homo sapiens, UniProt Q9UBN7)
Construct: purchased Calbiochem 382180
PROTOCOL TEXT: HDAC enzyme activity inhibition (in vitro), HDAC6 assay
Assay type: biochemical
EXPERIMENTAL PARAMETERS: samples at 0.1, 1, 10, 100 and 1000 nM; 37° C. 60 minutes; fluorescence Ex 390, Em 460; read-out: HDAC6 IC50
pIC50: −log10 of the molar value.

>  <SUBSTANCE SMILES>
Cc1ccc(-c2ccc3c(c2)n(C)c(=O)n3Cc2ccc(-c3nnc(C(F)F)o3)cn2)o1

>  <TESTED TARGET>
HDAC6 human recombinant (Homo sapiens, UniProt Q9UBN7)

>  <pIC50>
7.36

$$$$
>  <SUBSTANCE SMILES>
CN1CC(N2Cc3ccccc3N(Cc3ccc(-c4nnc(C(F)F)o4)cc3F)C2=O)C1

>  <TESTED TARGET>
HDAC6 human recombinant (Homo sapiens, UniProt Q9UBN7)

>  <pIC50>
6.64

$$$$
>  <SUBSTANCE SMILES>
O=c1n(Cc2ccc(-c3nnc(C(F)F)o3)cn2)c2cc(Cl)ccc2n1C1CCN(CC(F)(F)C(F)F)CC1

>  <TESTED TARGET>
HDAC6 human recombinant (Homo sapiens, UniProt Q9UBN7)

>  <pIC50>
6.99

$$$$
>  <SUBSTANCE SMILES>
O=c1n(Cc2ccc(-c3nnc(C(F)F)o3)cn2)c2cc(F)ccc2n1C1CCN(C2CC3(COC3)C2)CC1

>  <TESTED TARGET>
HDAC6 human recombinant (Homo sapiens, UniProt Q9UBN7)

>  <pIC50>
7.46

$$$$
>  <SUBSTANCE SMILES>
CS(=O)(=O)N1CCC(n2c(=O)n(Cc3ccc(-c4nnc(C(F)F)o4)cc3F)c3cc(C(F)(F)F)ccc32)CC1

>  <TESTED TARGET>
HDAC6 human recombinant (Homo sapiens, UniProt Q9UBN7)

>  <pIC50>
6.90

$$$$
>  <SUBSTANCE SMILES>
Cn1c(=O)n(Cc2ccc(-c3nnc(C(F)F)o3)cc2F)c2cc(F)c(-c3cccnc3)cc21

>  <TESTED TARGET>
HDAC6 human recombinant (Homo sapiens, UniProt Q9UBN7)

>  <pIC50>
7.68

$$$$
>  <SUBSTANCE SMILES>
O=c1sc2cc(-c3cnn(C4CCN(C5COC5)CC4)c3)ccc2n1Cc1ccc(-c2nnc(C(F)F)o2)cn1

>  <TESTED TARGET>
HDAC6 human recombinant (Homo sapiens, UniProt Q9UBN7)

>  <pIC50>
7.64

$$$$

----------
TESTED TARGET: HDAC6 human recombinant (Homo sapiens, UniProt Q9UBN7)
Construct: purchased Calbiochem 382180
PROTOCOL TEXT: HDAC enzyme activity inhibition (in vitro), HDAC6 assay
Type: biochemical
EXPERIMENTAL PARAMETERS: samples at 0.1, 1, 10, 100 and 1000 nM; 37° C. 60 minutes; fluorescence Ex 390, Em 460; read-out: HDAC6 IC50

>  <MOLECULE>
CC(C)N1CCC(n2c(=O)n(Cc3ccc(-c4nnc(C(F)F)o4)cn3)c3cc(F)ccc32)CC1 [Compound 51]

>  <DISPLAY UNIT>
nM

>  <IC50>
32

$$$$
>  <MOLECULE>
CN1CCC(c2ccc3c(c2)sc(=O)n3Cc2ccc(-c3nnc(C(F)F)o3)cn2)CC1 [Compound 331]

>  <DISPLAY UNIT>
nM

>  <IC50>
61

$$$$
>  <MOLECULE>
CN1CCC(n2c(=O)n(Cc3ccc(-c4nnc(C(F)F)o4)cc3F)c3ccc(C4CCN(C(=O)CO)CC4)cc32)CC1 [Compound 179]

>  <DISPLAY UNIT>
nM

>  <IC50>
145

$$$$
>  <MOLECULE>
O=c1n(Cc2ccc(-c3nnc(C(F)F)o3)cn2)c2ccc(F)cc2n1C1CCN(C2CCOCC2)CC1 [Compound 44]

>  <DISPLAY UNIT>
nM

>  <IC50>
76

$$$$

----------
Items are presented alongside their recorded IC50.
TESTED TARGET: HDAC6 human recombinant (Homo sapiens, UniProt Q9UBN7)
Construct: purchased Calbiochem 382180
PROTOCOL TEXT: HDAC enzyme activity inhibition (in vitro), HDAC6 assay
Type: biochemical
EXPERIMENTAL PARAMETERS: samples at 0.1, 1, 10, 100 and 1000 nM; 37° C. 60 minutes; fluorescence Ex 390, Em 460; read-out: HDAC6 IC50

>  <SUBSTANCE SMILES>
O=c1oc2cc(Cl)c(Br)cc2n1Cc1ccc(-c2nnc(C(F)F)o2)cn1

>  <IC50 [nM]>
47

$$$$
>  <SUBSTANCE SMILES>
Cc1noc(C)c1-c1ccc2c(c1)n(Cc1ccc(-c3nnc(C(F)F)o3)cc1)c(=O)n2C1CCN(C)CC1

>  <IC50 [nM]>
606

$$$$
>  <SUBSTANCE SMILES>
CS(=O)(=O)N1CCC(n2c(=O)n(Cc3ccc(-c4nnc(C(F)F)o4)cc3)c3cc(F)ccc32)CC1

>  <IC50 [nM]>
79

$$$$
>  <SUBSTANCE SMILES>
CN1CCC(n2c(=O)n(Cc3ccc(-c4nnc(C(F)F)o4)cc3F)c3ccc(-c4ccccc4F)cc32)CC1

>  <IC50 [nM]>
92

$$$$
>  <SUBSTANCE SMILES>
CN1CCC(n2c(=O)n(Cc3ccc(-c4nnc(C(F)F)o4)cc3F)c3ccc(-c4ccoc4)cc32)CC1

>  <IC50 [nM]>
39

$$$$
>  <SUBSTANCE SMILES>
CN1CCC(n2c(=O)n(Cc3ccc(-c4nnc(C(F)F)o4)cn3)c3cc(F)c(-c4ccc5[nH]ncc5c4)cc32)CC1

>  <IC50 [nM]>
8

$$$$
>  <SUBSTANCE SMILES>
CN1CCC(n2c(=O)n(Cc3ccc(-c4nnc(C(F)F)o4)cn3)c3ccc(-c4cnoc4)cc32)CC1

>  <IC50 [nM]>
48

$$$$

----------
TESTED TARGET: HDAC1 (Homo sapiens)
Construct: purchased Enzolifesciences BML-AK511
Sequence (Q13547 whole entry): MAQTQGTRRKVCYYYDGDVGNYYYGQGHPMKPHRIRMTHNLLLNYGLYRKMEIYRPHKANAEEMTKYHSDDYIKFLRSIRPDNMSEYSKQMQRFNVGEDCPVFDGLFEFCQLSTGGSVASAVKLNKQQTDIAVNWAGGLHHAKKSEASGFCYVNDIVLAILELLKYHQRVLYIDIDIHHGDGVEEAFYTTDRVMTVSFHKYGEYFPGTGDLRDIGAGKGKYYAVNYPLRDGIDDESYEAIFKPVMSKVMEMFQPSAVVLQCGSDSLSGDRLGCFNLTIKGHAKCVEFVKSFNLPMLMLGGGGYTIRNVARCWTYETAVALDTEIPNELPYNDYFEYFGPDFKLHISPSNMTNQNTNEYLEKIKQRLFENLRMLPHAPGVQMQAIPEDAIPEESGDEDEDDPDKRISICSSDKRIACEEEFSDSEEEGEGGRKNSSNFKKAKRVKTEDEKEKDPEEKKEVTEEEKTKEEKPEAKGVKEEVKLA
PROTOCOL TEXT: HDAC enzyme activity inhibition (in vitro), HDAC1 Fluorimetric Drug Discovery Assay Kit
Assay type: biochemical
EXPERIMENTAL PARAMETERS: samples at 100, 1000 and 10000 nM; 37° C. 60 minutes; fluorescence Ex 390, Em 460; read-out: HDAC1 IC50
pIC50: −log10 of the molar value.
# pIC50 annotations

>  <SUBSTANCE SMILES>
CN1CCC(c2ccc3c(c2)sc(=O)n3Cc2ccc(-c3nnc(C(F)F)o3)cn2)CC1

>  <pIC50>
< 5.00

$$$$
>  <SUBSTANCE SMILES>
CN1CCC(n2c(=O)n(Cc3ccc(-c4nnc(C(F)F)o4)cn3)c3cc(F)c(-c4cccc5[nH]ccc45)cc32)CC1

>  <pIC50>
< 5.00

$$$$
>  <SUBSTANCE SMILES>
CN1CCC(n2c(=O)n(Cc3ccc(-c4nnc(C(F)F)o4)cc3F)c3cc(F)c(-c4ccccc4F)cc32)CC1

>  <pIC50>
< 5.00

$$$$
>  <SUBSTANCE SMILES>
CC(=O)N1CCC(n2c(=O)n(Cc3ccc(-c4nnc(C(F)F)o4)cn3)c3cc(F)ccc32)CC1

>  <pIC50>
< 5.00

$$$$
>  <SUBSTANCE SMILES>
Cn1c(=O)n(Cc2ccc(-c3nnc(C(F)F)o3)cc2F)c2cc(-c3cccc(F)c3)ccc21

>  <pIC50>
< 5.00

$$$$
>  <SUBSTANCE SMILES>
CN1CC(n2c(=O)n(Cc3ccc(-c4nnc(C(F)F)o4)cn3)c3cc(F)c(-c4ccncc4)cc32)C1

>  <pIC50>
< 5.00

$$$$
>  <SUBSTANCE SMILES>
O=c1n(Cc2ccc(-c3nnc(C(F)F)o3)cn2)c2ccccc2n1C1COC1

>  <pIC50>
< 5.00

$$$$
>  <SUBSTANCE SMILES>
O=c1n(Cc2ccc(-c3nnc(C(F)F)o3)cn2)c2cc(F)c(-c3cn[nH]c3)cc2n1[C@@H]1CCCN(C2COC2)C1

>  <pIC50>
< 5.00

$$$$
>  <SUBSTANCE SMILES>
O=c1n(Cc2ccc(-c3nnc(C(F)F)o3)cn2)c2cc(F)c(-c3cccnc3)cc2n1C1CN(C2COC2)C1

>  <pIC50>
< 5.00

$$$$
>  <SUBSTANCE SMILES>
CN1CCC(n2c(=O)n(Cc3ccc(-c4nnc(C(F)F)o4)cc3)c3cc(F)c(F)cc32)CC1

>  <pIC50>
< 5.00

$$$$
>  <SUBSTANCE SMILES>
CN1CCC(n2c(=O)n(Cc3ccc(-c4nnc(C(F)F)o4)cc3F)c3ccc(-c4ccco4)cc32)CC1

>  <pIC50>
< 5.00

$$$$
>  <SUBSTANCE SMILES>
O=c1n(Cc2ccc(-c3nnc(C(F)F)o3)cc2F)c2cc(F)ccc2n1C1CCN(C2CCSCC2)CC1

>  <pIC50>
< 5.00

$$$$
>  <SUBSTANCE SMILES>
O=c1n(CCN2CCOCC2)c2cc(-c3cccnc3)c(F)cc2n1Cc1ccc(-c2nnc(C(F)F)o2)cn1

>  <pIC50>
< 5.00

$$$$
>  <SUBSTANCE SMILES>
CN1CCC(n2c(=O)n(Cc3ccc(-c4nnc(C(F)F)o4)cn3)c3cc(F)c(-c4cccnc4)cc32)CC1

>  <pIC50>
< 5.00

$$$$
>  <SUBSTANCE SMILES>
CN1CCC(n2c(=O)n(Cc3ccc(-c4nnc(C(F)F)o4)cn3)c3c(F)cccc32)CC1

>  <pIC50>
< 5.00

$$$$
